# testedSystem: Sodium-dependent dopamine transporter (Rattus norvegicus) (UniProt P23977)
# Sequence (P23977 whole entry): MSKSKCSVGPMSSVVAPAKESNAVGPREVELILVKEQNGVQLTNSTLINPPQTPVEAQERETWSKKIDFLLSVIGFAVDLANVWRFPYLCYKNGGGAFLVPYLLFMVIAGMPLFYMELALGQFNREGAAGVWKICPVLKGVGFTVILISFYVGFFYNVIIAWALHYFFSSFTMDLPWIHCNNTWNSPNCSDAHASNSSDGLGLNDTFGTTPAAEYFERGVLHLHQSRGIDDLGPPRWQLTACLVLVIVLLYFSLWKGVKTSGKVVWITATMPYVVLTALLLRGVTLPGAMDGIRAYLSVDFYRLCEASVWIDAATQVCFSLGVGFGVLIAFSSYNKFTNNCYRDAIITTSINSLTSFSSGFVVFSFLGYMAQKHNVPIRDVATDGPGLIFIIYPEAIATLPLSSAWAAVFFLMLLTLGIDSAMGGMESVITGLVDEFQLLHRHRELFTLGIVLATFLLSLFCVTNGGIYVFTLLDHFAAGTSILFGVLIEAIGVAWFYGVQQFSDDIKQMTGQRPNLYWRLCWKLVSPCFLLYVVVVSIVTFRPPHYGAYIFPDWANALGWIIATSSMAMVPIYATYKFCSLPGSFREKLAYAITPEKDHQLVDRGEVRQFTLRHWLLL
# protocolDetails: Potency ratio for Cocaine receptor (IC50 cocaine /IC50 compound)
Mark 1 for Log potency ratio under 0.1, 0 if at or over.

Take the compound COC(=O)C1C(CCCc2ccccc2)CC2CCC1N2C (configuration not stated) and say whether its Log potency ratio is less than 0.1.
1

Take the compound COC(=O)C1C(OC(=O)c2cccc3ccccc23)CC2CCC1N2C (configuration not stated) and say whether its Log potency ratio is less than 0.1.
1

Take the compound COC(=O)[C@H]1[C@@H](c2ccc(F)cc2)C[C@H]2CC[C@H]1N2C and say whether its Log potency ratio is less than 0.1.
0

Take the compound COC(=O)[C@H]1C2CC[C@H](C[C@H]1c1ccc3ccccc3c1)N2C and say whether its Log potency ratio is less than 0.1.
0

Take the compound COC(=O)[C@@H]1C2CC[C@H](C[C@H]1OC(=O)c1ccc3ccccc3c1)N2C and say whether its Log potency ratio is less than 0.1.
1

* * *

# testedSystem: Sodium-dependent dopamine transporter (Rattus norvegicus)
# protocolDetails: Inhibition [3H]-cocaine binding to Cocaine receptor in rat striatal membranes.
# Assay type: cell membranes
experimentalReadout: log10(IC50) (log10 of the value in nM)
# log10 transformed; quantity=IC50; unit=nM

Solved entries:
INSERT INTO results (compound, testedsystem, measuredresult) VALUES
  ('C=C(c1ccccc1)C1CC2CCC(C1C(=O)OC)N2C (stereo not drawn)', 'Sodium-dependent dopamine transporter (Rattus norvegicus)', 1.85),
  ('COC(=O)C1C(CCCc2ccccc2)CC2CCC1N2C (stereo not drawn)', 'Sodium-dependent dopamine transporter (Rattus norvegicus)', 2.54),
  ('COC(=O)[C@@H]1C2CC[C@H](C[C@H]1OC(=O)c1ccc3ccccc3c1)N2C', 'Sodium-dependent dopamine transporter (Rattus norvegicus)', 2.51),
  ('COC(=O)[C@H]1C2CC[C@H](C[C@H]1c1ccc3ccccc3c1)N2C', 'Sodium-dependent dopamine transporter (Rattus norvegicus)', 0.52),
  ('COC(=O)[C@@H]1C2CC[C@H](C[C@H]1/C=C/c1ccccc1)N2C', 'Sodium-dependent dopamine transporter (Rattus norvegicus)', 0.32);

Quick check: log10(IC50) of COC(=O)C1C(OC(=O)c2cccc3ccccc23)CC2CCC1N2C (stereo not drawn) ?
2.87

Quick check: log10(IC50) of COC(=O)[C@@H]1C2CC[C@H](C[C@H]1CCc1ccccc1)N2C ?
1.00

Quick check: log10(IC50) of COC(=O)[C@@H]1C2CC[C@H](C[C@H]1c1ccc(-c3ccccc3)cc1)N2C ?
1.01

* * *

# testedSystem: Sodium-dependent dopamine transporter (Rattus norvegicus) (UniProt P23977)
# protocolDetails: Ability to inhibit binding of [3H]cocaine to Cocaine receptor in rat brain
# Assay type: tissue-based
Each entry falls in a class defined on Log potency ratio; the bands are small value: < -0.5; mid value: ≥ -0.5 and < 0.9; large value: ≥ 0.9

Category of C=C(c1ccccc1)C1CC2CCC(C1C(=O)OC)N2C (stereo unspecified) , please.
small value

* * *

# testedSystem: Sodium-dependent dopamine transporter (Rattus norvegicus, UniProt P23977)
# protocolDetails: Inhibition [3H]DA uptake in rat striatal synaptosomes.
# Type: functional, subcellular, Brain
experimentalReadout: pIC50
The scale used: pIC50 is minus the common logarithm of the concentration in molar units.

Quick check: pIC50 of COC(=O)C1C(CCCc2ccccc2)CC2CCC1N2C (stereo not given) ?
5.57

* * *

# maps each entry to its Log potency ratio
# testedSystem: Sodium-dependent dopamine transporter (Rattus norvegicus) (UniProt P23977)
# protocolDetails: Value is difference between the cocaine binding and DA uptake
Just the number, please, no unit after it.

INSERT INTO assay_data (molecule, measuredresult) VALUES
  ('COC(=O)C1C(c2ccc(N)cc2)CC2CCC1N2C (stereo not given)', -0.32),
  ('COC(=O)[C@@H]1C2CC[C@H](C[C@H]1/C=C/c1ccccc1)N2C', 0.13),
  ('COC(=O)[C@@H]1C2CC[C@H](C[C@H]1OC(=O)c1ccc3ccccc3c1)N2C', 0.08);

Quick check: Log potency ratio of COC(=O)[C@H]1C2CC[C@H](C[C@H]1c1ccc3ccccc3c1)N2C ?
-0.29

Quick check: Log potency ratio of COC(=O)C1C(c2ccc([N+](=O)[O-])cc2)CC2CCC1N2C (stereo not given) ?
-0.134

* * *

# testedSystem: Sodium-dependent dopamine transporter (Rattus norvegicus) (UniProt P23977)
# protocolDetails: Value is difference between the cocaine binding and DA uptake
experimentalReadout: Log potency ratio
Just the number, please, no unit after it.

INSERT INTO assay_data (compound, measuredresult) VALUES
  ('COC(=O)[C@H]1[C@@H](c2ccc(F)cc2)C[C@H]2CC[C@H]1N2C', -0.35);

Quick check: Log potency ratio of COC(=O)[C@@H]1C2CC[C@H](C[C@@H]1c1ccccc1)N2C ?
-0.13

Quick check: Log potency ratio of COC(=O)C1C(CCCc2ccccc2)CC2CCC1N2C (configuration not stated) ?
0.58

Quick check: Log potency ratio of COC(=O)C1C(OC(=O)c2cccc3ccccc23)CC2CCC1N2C (configuration not stated) ?
-0.11

Quick check: Log potency ratio of C=C(c1ccccc1)C1CC2CCC(C1C(=O)OC)N2C (configuration not stated) ?
-0.03

Quick check: Log potency ratio of COC(=O)[C@@H]1C2CC[C@H](C[C@H]1CCc1ccccc1)N2C ?
0.54

Quick check: Log potency ratio of COC(=O)[C@@H]1C2CC[C@H](C[C@H]1c1ccc(-c3ccccc3)cc1)N2C ?
0.14

* * *

# testedSystem: Sodium-dependent dopamine transporter (Rattus norvegicus) (UniProt P23977)
# protocolDetails: Dopamine (DA) uptake
# Assay type: functional
# if value of Log potency ratio reaches 0.5, tag true (1); if it stays below, tag false (0)

The examples below pair each entry with its known result.
INSERT INTO results (compound, categorylabel) VALUES
  ('COC(=O)[C@@H]1C2CC[C@H](C[C@@H]1c1ccccc1)N2C', 'true (1)'),
  ('C=C(c1ccccc1)C1CC2CCC(C1C(=O)OC)N2C (stereo unspecified)', 'false (0)'),
  ('COC(=O)[C@H]1[C@@H](c2ccc(F)cc2)C[C@H]2CC[C@H]1N2C', 'true (1)'),
  ('COC(=O)C1C(CCCc2ccccc2)CC2CCC1N2C (stereo unspecified)', 'false (0)'),
  ('COC(=O)[C@H]1C2CC[C@H](C[C@H]1c1ccc3ccccc3c1)N2C', 'true (1)');

Would you say COC(=O)[C@@H]1C2CC[C@H](C[C@H]1OC(=O)c1ccc3ccccc3c1)N2C shows Log potency ratio at minimum 0.5?
false (0)

Would you say COC(=O)[C@@H]1C2CC[C@H](C[C@H]1c1ccc(-c3ccccc3)cc1)N2C shows Log potency ratio at minimum 0.5?
true (1)

Would you say COC(=O)[C@@H]1C2CC[C@H](C[C@H]1CCc1ccccc1)N2C shows Log potency ratio at minimum 0.5?
false (0)

Would you say COC(=O)C1C(OC(=O)c2cccc3ccccc23)CC2CCC1N2C (stereo unspecified) shows Log potency ratio at minimum 0.5?
false (0)

Would you say COC(=O)[C@@H]1C2CC[C@H](C[C@H]1/C=C/c1ccccc1)N2C shows Log potency ratio at minimum 0.5?
true (1)

Would you say COC(=O)C1C(c2ccc(N)cc2)CC2CCC1N2C (stereo unspecified) shows Log potency ratio at minimum 0.5?
false (0)

* * *

# testedSystem: Sodium-dependent dopamine transporter (Rattus norvegicus) (UniProt P23977)
# protocolDetails: Potency ratio for Cocaine receptor (IC50 cocaine /IC50 compound)
# maps each entry to its Log potency ratio
Just the number, please, no unit after it.

Quick check: Log potency ratio of COC(=O)C1C(c2ccc(N)cc2)CC2CCC1N2C (configuration not stated) ?
-0.14

* * *

# testedSystem: Sodium-dependent dopamine transporter (Rattus norvegicus) (UniProt P23977)
# protocolDetails: Ability to inhibit binding of [3H]cocaine to Cocaine receptor in rat brain
# Assay type: tissue-based
# maps each entry to its Log potency ratio
Just the number, please, no unit after it.

INSERT INTO measurements (compound, measuredresult) VALUES
  ('COC(=O)[C@@H]1C2CC[C@H](C[C@H]1c1ccc(-c3ccccc3)cc1)N2C', 0.9);

Lab note: next compound to report on.
Quick check: Log potency ratio of COC(=O)[C@@H]1C2CC[C@H](C[C@H]1/C=C/c1ccccc1)N2C ?
0.48

* * *

# maps each entry to its IC50
# testedSystem: Sodium-dependent dopamine transporter (Rattus norvegicus, UniProt P23977)
# protocolDetails: Inhibition [3H]DA uptake in rat striatal synaptosomes.
# Format: functional, subcellular, Brain
Respond numerically; units are nM and should not be typed.

Solved entries:
INSERT INTO results (compound, experimentalreadout, measuredresult) VALUES
  ('COC(=O)[C@@H]1C2CC[C@H](C[C@H]1OC(=O)c1ccc3ccccc3c1)N2C', 'IC50', 813),
  ('COC(=O)[C@H]1C2CC[C@H](C[C@H]1c1ccc3ccccc3c1)N2C', 'IC50', 3.53),
  ('COC(=O)C1C(Cc2ccc3ccccc3c2)CC2CCC1N2C (centres undefined)', 'IC50', 1350),
  ('COC(=O)[C@@H]1C2CC[C@H](C[C@H]1/C=C/c1ccccc1)N2C', 'IC50', 5.88),
  ('COC(=O)C1C(Cc2ccccc2)CC2CCC1N2C (centres undefined)', 'IC50', 1020),
  ('COC(=O)[C@@H]1C2CC[C@H](C[C@H]1CCc1ccccc1)N2C', 'IC50', 70.5),
  ('C=C(c1ccccc1)C1CC2CCC(C1C(=O)OC)N2C (centres undefined)', 'IC50', 138),
  ('COC(=O)C1C(OC(=O)c2cccc3ccccc23)CC2CCC1N2C (centres undefined)', 'IC50', 1190);

Lab note: next compound to report on.
Quick check: IC50 of COC(=O)[C@@H]1C2CC[C@H](C[C@H]1c1ccc(-c3ccccc3)cc1)N2C ?
29.4
